Data origin: PubChem BioAssay

- test.target: Epidermal growth factor receptor (Homo sapiens)
- protocol.notes: EGFR binders on small-molecule microarrays, primary screen, biochemical, small-molecule microarray, 635 nm fluorescence (AID 1104);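 further: score merges 667 nm emission intensity with spot signal to noise over triplicate slides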
- run.parameters: EGFR binding, higher = more signal
metric: composite z-score

Item: "CCOC(=O)C[C@H]1[C@H](OC(=O)c2ccccc2-c2ccccc2)[C@@H](NC(=O)c2ccc(-c3ccccc3)cc2)c2cc(OCCCO)ccc2N1C(=O)Cc1ccc(OC)cc1" | composite z-score: 0.147

Item: "CCc1cccc(NC(=O)O[C@H]2[C@H](OC(=O)Nc3ccccc3)[C@@H](OC(=O)Nc3ccccc3)[C@@H](OC)O[C@@H]2CO)c1" | composite z-score: 0.0832

Item: "[N-]=[N+]=NCc1ccccc1C[C@]1(C(N)=O)N=C(c2ccc(OCCCO)cc2)O[C@H]1c1ccccc1CN=[N+]=[N-]" | composite z-score: -0.37

Item: "C=C(CCCC)/C(=C/C[C@H](OC(=O)c1ccncc1)c1cccc(OCCO)c1)c1cc(C(=O)OC)ccc1OC" | composite z-score: -0.218

====

- protocol.notes: cell viability in Huh7 cells, primary screen, cytotoxicity control for HCV replication inhibitor project, CellTiter-Glo luminescence, basal, 48 h (AID 1143);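 further: Huh7 hepatoma cells carrying a hepatitis C replication reporter with no stimulus; test concentration not given here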
- run.parameters: Huh7 HCV replicon, higher = more signal, called active from +8 up or from −8 down
metric: z-score
The reply should be a number, written without any unit.

Item: O=C1C2C=CC(C(O)Cc3ccccc3)N(Nc3ccc([N+](=O)[O-])cc3)C2C(=O)N1c1ccccc1 (centres undefined) | z-score: -0.219

Item: "O=C(CS)NCCCCCNC(=O)[C@H]1C[C@H]2C(=O)N3CCC[C@H]3C(=O)N2[C@H]1c1ccc(O)cc1" | z-score: -0.564

Item: "C[N+](C)(C)CCCCNC(=O)[C@@H]1C[C@@H]2C(=O)N3CCC[C@H]3C(=O)N2[C@@H]1c1cccc(OCCO)c1" | z-score: -3.3

Item: "CC(=O)NCCCC[C@@H]1NC(=O)[C@H]2C[C@@H](C(=O)NCCCCCCN(C)C)[C@@H](c3cccc(OCCO)c3)N2C1=O" | z-score: -0.102

Item: "CCc1cccc(NC(=O)O[C@H]2[C@H](OC(=O)Nc3ccccc3)[C@@H](OC(=O)Nc3ccccc3)[C@@H](OC)O[C@@H]2CO)c1" | z-score: -5.6

Item: CN1C(=O)C2C=CC(C(O)C3CC=CCC3)N(Nc3ccccc3)C2C1=O (centres undefined) | z-score: 0.758

Item: C=CCC(OC(C)=O)[C@@H]1[C@@H](N(Cc2ccc(-c3cccc(C(F)(F)F)c3)o2)C(=O)Cc2ccc(F)cc2)c2cc(OCCCO)ccc2N1C(=O)c1ccc(-c2ccccc2)cc1 (some centres undefined) | z-score: -0.072

Item: "CCOC(=O)C[C@H]1[C@H](OC(=O)c2ccccc2-c2ccccc2)[C@@H](NC(=O)C2CCCCC2)c2cc(OCCCO)ccc2N1C(=O)c1ccccc1" | z-score: -0.781

Item: "[N-]=[N+]=NCc1ccccc1C[C@]1(C(N)=O)N=C(c2ccc(OCCCO)cc2)O[C@H]1c1ccccc1CN=[N+]=[N-]" | z-score: -5.2

Item: "CSCC[C@@H]1NC(=O)CC=C[C@@H](C)COC(=O)[C@H](CCSC)NC(=O)CC=C[C@@H](C)COC1=O" | z-score: -3.38

Item: "COCCOC(=O)N1C(=O)[C@@]2(c3cc(C#CCCO)ccc31)[C@H](c1ccc(O)cc1)N1[C@H](c3ccccc3)[C@H](c3ccccc3)OC(=O)[C@H]1[C@@H]2C(=O)Nc1nc2ccccc2s1" | z-score: -2.49

Item: "C=C(CCCC)C(=O)CC[C@@H](OC(=O)c1cccnc1)c1cccc(OCCO)c1" | z-score: -1.85

Item: "C=CCNC(=O)[C@@H]1[C@H]2C(=O)O[C@H](c3ccccc3)[C@H](c3ccccc3)N2[C@H](c2ccc(OCCO)cc2)[C@@]12C(=O)N(C(=O)OCCOC)c1ccc(C#CC3(O)CCCCCC3)cc12" | z-score: -6.19

Item: "CCCC[C@@H]1C[C@H]1[C@@H](NC(=O)c1cccs1)c1ccc(Cl)cc1" | z-score: -3.19
